test: NCI Yeast Anticancer Drug Screen. Data for the mec2-1 strain (AID 157)
reportedConditions: S. cerevisiae mec2-1 strain, at 11.0 µM, active compounds read high
This is part of a sample that, as a whole, favours compounds with a hit. Of some 79,000 tested, about 15% had one in any assay.
Binning of growth inhibition into classes: one = under 4%, two = from 4% up to 20%, three = 20% and over

Into which category would you place `Cc1cc(NC(=S)SCc2ccc(Cl)cc2)ccc1Cl` ? three

Into which category would you place `Cc1cc(N(CCOS(C)(=O)=O)CCOS(C)(=O)=O)ccc1C=O` ? three

Next:
Into which category would you place `CCOC(=O)c1sc2[n+](c1C)C(=O)/C(=C/c1cc(OC)c(OC)c(OC)c1)S2` ? three

Into which category would you place S=C1NC2=C(CSC/C2=C\c2ccc(Cl)cc2)C(c2ccc(Cl)cc2)N1 (stereo unspecified) ? three

Into which category would you place `CN(C)N1C(=O)SCC(c2ccccc2)(c2ccccc2)C1=O` ? one

Into which category would you place `O=C(O)/C=C\C(=O)NNc1ccc(Br)cc1` ? three

* * *

test: NCI Yeast Anticancer Drug Screen. Data for the cln2 rad14 strain (AID 165);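 further: 0% = growth equal to vehicle treated cultures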
reportedConditions: S. cerevisiae cln2 rad14 strain, at 50.0 µM (retest, dose inferred, filed as 5.0), active compounds read high
The panel holds about 79,000 compounds, 15% with a hit somewhere; the sample as a whole holds those more often.
Recorded growth inhibition for the following molecules
Give just the numeric value; % need not be written.

Recorded results for 8 molecules are shown here.
Reported growth inhibition of c1ccc2cc(OCC3CO3)c(OCC3CO3)cc2c1 (configuration not stated) : 63

Reported growth inhibition of `O=C(Cc1ccccc1F)NC1=C(Cl)C(=O)c2ccccc2C1=O` : 45

Reported growth inhibition of `S=c1[nH]nc(Cc2ccccc2)c(=S)[nH]1` : 67

Reported growth inhibition of O=C1OC(/C=C/c2ccccc2)Sc2ccccc21 (configuration not stated) : -47

Reported growth inhibition of `CN(C)c1ccc(/C=C/c2ccnc3ccc4ccccc4c23)cc1` : 22

Reported growth inhibition of `CCOC(=O)/C=C1\CCCn2c1ncc(C(=O)OCC)c2=O` : 24

Reported growth inhibition of `O=C(c1c(F)c(F)c(F)c(F)c1F)c1c(F)c(F)c(F)c(F)c1F` : 70

Reported growth inhibition of `Nc1nc(Nc2ccccc2)nc(Nc2ccccc2)n1` : 8

Next:
Reported growth inhibition of `CCN(CC)c1ccc(N=Nc2cc(S(=O)(=O)O)ccc2O)c(O)c1` : 39

Reported growth inhibition of O=C(Nc1ccn(C2CC(O)C(COC(c3ccccc3)(c3ccccc3)c3ccccc3)O2)c(=O)n1)c1ccccc1 (configuration not stated) : 96

Reported growth inhibition of `CCCCOc1ccc(Nc2c3ccccc3nc3ccccc23)cc1` : -7

Reported growth inhibition of `C#CC1=CC(=O)C(OC)=CC1=O` : 99

* * *

test: NCI Yeast Anticancer Drug Screen. Data for the rad50EPP+ strain (AID 151);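 further: 0% = growth of vehicle-treated control cultures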
reportedConditions: S. cerevisiae rad50 mutant strain, at 1.2 µM, active compounds read high
About 79,000 compounds went through this panel and 15% of them were active in at least one assay; those are over-represented in the sample as a whole.
propertyMeasured: growth inhibition (%)
Give just the numeric value; % need not be written.

Recorded results for 2 compounds are shown here.
Reported growth inhibition of `Cc1cnc(/C=N\NC(N)=S)c2cccc(N)c12` : -68

Reported growth inhibition of CC(C)(C)[Si](C)(C)OCC1OC(n2cnc3c(N)ncnc32)C2OC(=S)OC12 (stereo not given) : -5

Next:
Reported growth inhibition of `Cn1c(COc2ccc(/C=N/NC(=O)CCC(=O)N/N=C/c3ccc(OCc4c[n+]5ccccc5n4C)cc3)cc2)c[n+]2ccccc12` : -4

Reported growth inhibition of O=C(Nc1ccn(C2CC(O)C(COC(c3ccccc3)(c3ccccc3)c3ccccc3)O2)c(=O)n1)c1ccccc1 (stereo not given) : -26

Reported growth inhibition of `CCCCCC/C(C)=N/Nc1ccc([N+](=O)[O-])cc1[N+](=O)[O-]` : -7

* * *

test: NCI Yeast Anticancer Drug Screen. Data for the rad18 strain (AID 177)
reportedConditions: S. cerevisiae rad18 mutant growth inhibition; at 3.7 µM; active compounds read high
The panel holds about 79,000 compounds, 15% with a hit somewhere; the sample as a whole holds those more often.
Recorded growth inhibition for the following compounds
Give just the numeric value; % need not be written.

Reported growth inhibition of `[O-]c1c2cc(-[n+]3c(-c4ccccc4)cc(-c4ccccc4)cc3-c3ccccc3)cc1COCCOCCOCCOCCOC2` : -3

Reported growth inhibition of `Cc1cccc[c]1[Sn]([Cl])([S]/C(C#N)=N/N=C/c1ccc(N(C)C)cc1)[c]1ccccc1C` : -2

Reported growth inhibition of CCOC(=O)c1[nH]c2cccc3c2c1CC(Br)C3=O (configuration not stated) : -22

Reported growth inhibition of S=C1NC2=C(CSC/C2=C\c2ccc(Cl)cc2)C(c2ccc(Cl)cc2)N1 (configuration not stated) : 25

Reported growth inhibition of `O=c1oc(C(C(F)(F)F)C(F)(F)F)nc2ccccc12` : 15

Next:
Reported growth inhibition of CC(C)(C)[Si](C)(C)OCC1OC(n2cnc3c(N)ncnc32)C2OC(=S)OC12 (configuration not stated) : 1

Reported growth inhibition of `O=c1[nH]c(=O)n(CCCO)cc1F` : -6

Reported growth inhibition of `CCc1nc2ccc(N=Nc3c(O)ccc4ccccc34)cc2[nH]1` : -10

Reported growth inhibition of `CC(=O)O/N=C/c1c2ccccc2cc2ccccc12` : -1

* * *

test: NCI Yeast Anticancer Drug Screen. Data for the rad18 strain (AID 177)
reportedConditions: S. cerevisiae rad18 mutant growth inhibition; at 100.0 µM; active compounds read high
Compounds without any hit were thinned out: in the full panel of roughly 79,000, 15% have a hit.
Quick rule for you: growth inhibition at 90% or higher means criterion met, lower means criterion not met.

Answered cases to consult:
Does the reported growth inhibition for O=C1c2ccccc2C2CCC1c1ccccc12 (stereo unspecified) fall at or above the 90% mark? criterion met

Does the reported growth inhibition for `Nc1ccc2ncc(Nc3ccc(Cl)c(Cl)c3)nc2c1` fall at or above the 90% mark? criterion met

Does the reported growth inhibition for `CCN(CC)CCSc1c2ccccc2nc2cc(NCC(=O)Nc3ccccc3-c3ccccc3NC(=O)CNc3ccc4c(SCCN(CC)CC)c5ccccc5nc4c3)ccc12` fall at or above the 90% mark? criterion met

Does the reported growth inhibition for CC[N+]1(C)CCC(O)(/C=C/c2ccc(Cl)c(Cl)c2)C(C(=O)/C=C/c2ccc(Cl)c(Cl)c2)C1 (stereo unspecified) fall at or above the 90% mark? criterion met

Does the reported growth inhibition for `Cc1ccc2nc(N/N=C/c3ccc(C)s3)cc(C)c2c1` fall at or above the 90% mark? criterion met

Does the reported growth inhibition for `CN(C)c1ccc(/C=C/c2ccnc3ccc4ccccc4c23)cc1` fall at or above the 90% mark? criterion not met

Does the reported growth inhibition for CCOc1ccccc1N1C(=O)CC(Sc2ccccc2N)C1=O (stereo unspecified) fall at or above the 90% mark? criterion not met

Does the reported growth inhibition for `CCSc1c2ccccc2c(-c2nc(F)nc(F)n2)n1CCc1ccccc1` fall at or above the 90% mark? criterion met

Turning to the following compound.
Does the reported growth inhibition for `O=c1[nH]cc(F)c(=O)[nH]1` fall at or above the 90% mark? criterion not met

* * *

test: NCI Yeast Anticancer Drug Screen. Data for the rad50EPP+ strain (AID 151);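 further: 0% = growth of vehicle-treated control cultures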
reportedConditions: S. cerevisiae rad50 mutant strain, at 3.7 µM
The panel holds about 79,000 compounds, 15% with a hit somewhere; the sample as a whole holds those more often. Activity calls are given as the source filed them. Cut-off read from the data, not from the text of the source: active = growth inhibition above about 70%; inactive = the rest.
Please answer using one outcome listed in active, inactive

Field: outcome | Entry: `Cc1cnc(/C=N\NC(N)=S)c2cccc(N)c12` inactive

Turning to the following compound.
Field: outcome | Entry: CC(O)CN1C(=O)c2cccc3cc([N+](=O)[O-])cc(c23)C1=O (stereo unspecified) inactive

* * *

test: NCI Yeast Anticancer Drug Screen. Data for the rad50 strain (AID 155);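 further: 0% = growth of vehicle-only cultures of the same strain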
reportedConditions: S. cerevisiae rad50 strain growth inhibition; at 50.0 µM; active compounds read high
The panel holds about 79,000 compounds, 15% with a hit somewhere; the sample as a whole holds those more often.
propertyMeasured: growth inhibition (%)
Give just the numeric value; % need not be written.

Recorded results for 5 molecules are shown here.
Reported growth inhibition of O=C1C(C(O)(C(F)(F)F)C(F)(F)F)CCC1C(O)(C(F)(F)F)C(F)(F)F (stereo unspecified) : 22.3

Reported growth inhibition of O=C1c2ccccc2-c2ccc(NC(=O)C3CCCCC3C(=O)O)cc21 (stereo unspecified) : 43.1

Reported growth inhibition of CSc1ccc2c(c1)C(N1CCN(C)CC1)Cc1ccccc1S2 (stereo unspecified) : 88.1

Reported growth inhibition of `CC1=Cc2ccc(C)cc2C(=O)C1=O` : 99.1

Reported growth inhibition of `O=C(c1c(F)c(F)c(F)c(F)c1F)c1c(F)c(F)c(F)c(F)c1F` : 84.6

Next:
Reported growth inhibition of `Nc1ccc2ncc(Nc3ccc(Cl)c(Cl)c3)nc2c1` : 85

Reported growth inhibition of `Oc1ccc(Br)cc1C=Nc1cccc(C(F)(F)F)c1` : 70.5

Reported growth inhibition of `Cc1cc(NC(=S)SCc2ccc(Cl)cc2)ccc1Cl` : 90.5

Reported growth inhibition of [N-]=[N+]=NC1CC(n2ccc(=O)[nH]c2=O)OC1COC(c1ccccc1)(c1ccccc1)c1ccccc1 (stereo unspecified) : 41.8

Reported growth inhibition of `CCOC(=O)c1sc2[n+](c1C)C(=O)/C(=C/c1cc(OC)c(OC)c(OC)c1)S2` : 41

Reported growth inhibition of `COc1ccc(CCN2C(=O)C=CC2=O)cc1OC` : 83.2
